test system: Inhibin beta A chain (activin A); experiment: INHBA (activin A) binders on microarrays, primary screen, biochemical, small-molecule microarray, 635 nm fluorescence scan (AID 1107); settings: small-molecule microarray binding, higher = more signal;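 note: mouse activin A protein probed at 4.33 µg/mL on printed slides; score merges bound-protein fluorescence near 667 nm with spot signal-to-noise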
Okay, here is how we bin by composite z-score: category 1 = under 0.3, category 2 = from 0.3 up to 0.9, category 3 = 0.9 and over

Use the examples below as a reference point.
[
  {
    "molecule": "C=CCNC(=O)[C@H]1[C@@H]2C(=O)O[C@@H](c3ccccc3)[C@@H](c3ccccc3)N2[C@@H](c2ccccc2OCCO)[C@]12C(=O)N(C(=O)OCCOC)c1ccc(C#CCCO)cc12",
    "target-desc": "Inhibin beta A chain (activin A)",
    "category-label": "category 3"
  },
  {
    "molecule": "COc1ccc([Si](C)(C)[C@H]2[C@H](CCO)O[C@@]3(C(=O)N(Cc4ccc(N5C(=O)c6cccc7cccc5c67)cc4)c4ccccc43)[C@@H]2C)cc1",
    "target-desc": "Inhibin beta A chain (activin A)",
    "category-label": "category 2"
  },
  {
    "molecule": "COC(=O)C(CC#Cc1ccc2c(c1)[C@]1(C(=O)N2)[C@H](c2ccccc2OCCO)N2[C@H](c3ccccc3)[C@H](c3ccccc3)OC(=O)[C@H]2[C@@H]1C(=O)N1CCCCCCC1)C(=O)OC",
    "target-desc": "Inhibin beta A chain (activin A)",
    "category-label": "category 3"
  },
  {
    "molecule": "[N-]=[N+]=NCc1ccccc1C[C@]1(C(=O)NCc2ccccc2)N=C(c2ccc(OCCCO)cc2)O[C@H]1c1ccccc1",
    "target-desc": "Inhibin beta A chain (activin A)",
    "category-label": "category 3"
  }
]

Ask | State the band of O=C(NO)[C@]1(Cc2ccccc2)N=C(c2ccc(OCCCO)cc2)O[C@@H]1c1ccccc1
Reply | category 1

Ask | Tag the class for O=C(O)[C@H]1C[C@H]2C(=O)N[C@@H](Cc3ccccc3)C(=O)N2[C@H]1c1ccc(O)cc1
Reply | category 3

* * *

target: Streptavidin (Streptomyces avidinii); assay: streptavidin binders on small-molecule microarray, primary screen, artefact control for SMM compound annotation, biophysical, 635/667 nm fluorescence (AID 1147); settings: streptavidin binding, higher = more signal;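 note: signal reflects streptavidin binding to arrayed compounds as a control protein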
Use 0.3 as the dividing line for composite z-score, with the line itself on the Condition met side and lower values as Condition not met.

The following compounds have reported results that may help.
[
  {
    "input-smiles": "COc1ccc([Si](C)(C)[C@@H]2[C@@H](CCn3cc([C@H](O)c4ccccc4)nn3)O[C@]3(C(=O)N(C)c4c(Br)cc(C)cc43)[C@H]2C)cc1",
    "category-label": "Condition not met"
  },
  {
    "input-smiles": "C=CC[C@@]1(C(=O)NCc2ccccc2)N=C(c2ccc(OCCCO)cc2)O[C@@H]1c1ccccc1",
    "category-label": "Condition met"
  },
  {
    "input-smiles": "Cc1ccc(S[C@]2(C(=O)NC3CC3)CC(=O)N(Cc3ccccc3C(F)(F)F)[C@@H]2c2ccc(CO)cc2I)cc1",
    "category-label": "Condition not met"
  },
  {
    "input-smiles": "C=C[C@H](OC)[C@@H](OC(=O)Nc1ccc(OC)cc1)c1ccc(OC)c(O)c1",
    "category-label": "Condition not met"
  },
  {
    "input-smiles": "CC(C)CNC(=O)[C@@H]1c2ccccc2C(=O)N(Cc2ccc(OC(F)(F)F)cc2)[C@H]1c1ccc(CO)cc1",
    "category-label": "Condition met"
  }
]

Ask | Evaluate COCCCN1C(=O)[C@@]2(Cc3ccccc31)c1ccccc1C(=O)N(Cc1ccccc1Cl)[C@H]2c1ccc(CO)cc1 : composite z-score at minimum 0.3?
Reply | Condition not met
